Every entry's value here was drawn from PubChem BioAssay AID1963835.

- Test system: 699152-130-R-J1-PDC complex spheroid viability;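 further: spheroids exposed to agents for 7 days before viability reading; percent of DMSO vehicle control viability so 100% = vehicle and 0% = no viable signal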
- assay text: Anticancer human tumor 699152-130-R-J1-PDC patient-derived pancreatic carcinoma cell line growth inhibition [POLQ]
- applied conditions: second compound 10 µM; first compound 10 µM; active compounds read low
experimental readout: viability, T/C (%)
Give bare numbers, in %.

// worked examples, viability, T/C included
{"molecule": "C=CC(=O)N1CCN(c2nc(=O)n(-c3c(C)ccnc3C(C)C)c3nc(-c4c(O)cccc4F)c(F)cc23)C(C)C1 (stereo unspecified) + COC1C(OC(N)=O)C(O)C(Oc2ccc3c(O)c(NC(=O)c4ccc(O)c(CC=C(C)C)c4)c(=O)oc3c2C)OC1(C)C", "tgt": "699152-130-R-J1-PDC complex spheroid viability", "display unit": "%", "viability, T/C": 106}
{"molecule": "COc1ccc([C@@H](O)c2cc(-c3ncnc4cc(N5CCOCC5)ccc34)c(F)cc2Cl)nn1 + Nc1ccc(C#CCN(C(=O)Cc2ncc(C(F)(F)F)cc2C(F)(F)F)c2ccc(F)cc2)nn1", "tgt": "699152-130-R-J1-PDC complex spheroid viability", "display unit": "%", "viability, T/C": 26}
{"molecule": "COc1cc(C2c3cc4c(cc3C(OC3OC5COC(C)OC5C(O)C3O)C3COC(=O)C23)OCO4)cc(OC)c1O (stereo unspecified) + Cc1cccc(N(C)C(=O)C2C(O)CCN2c2nc(C)cc(C(F)(F)F)c2C#N)c1", "tgt": "699152-130-R-J1-PDC complex spheroid viability", "display unit": "%", "viability, T/C": 55.9}

Dear colleague, could you send me viability, T/C for each of the items below? Thanks.
1. C#Cc1c(F)ccc2cc(O)cc(-c3ncc4c(N5CC6CCC(C5)N6)nc(OCC56CCCN5CC(F)C6)nc4c3F)c12 (stereo unspecified) + Nc1ccc(C#CCN(C(=O)Cc2ncc(C(F)(F)F)cc2C(F)(F)F)c2ccc(F)cc2)nn1
2. CNCc1ccc(-c2[nH]c3cc(F)cc4c3c2CCNC4=O)cc1 + Nc1ccc(C#CCN(C(=O)Cc2ncc(C(F)(F)F)cc2C(F)(F)F)c2ccc(F)cc2)nn1
3. O=C(Nc1ccc(O)c(NS(=O)(=O)c2ccc(F)cc2)c1)c1ccc(-c2ccccc2)cc1 + Nc1ccc(C#CCN(C(=O)Cc2ncc(C(F)(F)F)cc2C(F)(F)F)c2ccc(F)cc2)nn1
4. CNCc1ccc(-c2[nH]c3cc(F)cc4c3c2CCNC4=O)cc1 + COC1C(OC(N)=O)C(O)C(Oc2ccc3c(O)c(NC(=O)c4ccc(O)c(CC=C(C)C)c4)c(=O)oc3c2C)OC1(C)C

Reply:
1: 11.5; 2: 120; 3: 59.3; 4: 108
